Source listed as paper PMC12040169.

EXPERIMENT_NOTES: in vitro
CONDITION_INFO: human, hela cells, % viability
For each entry below, report its viability at 28.5 h, 10 µM value.
One number for each entry, in %.

Known results for compounds:
| COMPOUND | viability at 28.5 h, 10 µM / % |
| --- | --- |
| CN1CCN(Cc2c(O)ccc3c(=O)c(-c4ccc(Cl)cc4)coc23)CC1 | 102 |
| O=C(c1ccco1)N1CCC(c2onc3c2CCCCC3)CC1 | 91 |
| OC1(c2cccnc2F)CCN(Cc2c(F)cccc2Cl)CC1 | 106 |
| CC1CCN(C(=O)CC(NC(N)=O)c2cccc(Br)c2)CC1 (stereo not shown) | 95.3 |
| O=C(CC1C(=O)NCCN1C(=O)Nc1ccc(OCc2ccccc2)cc1)Nc1ccc(F)cc1 (stereo not shown) | 113 |

Batch lookup, viability at 28.5 h, 10 µM per entry.
1. N#Cc1cccnc1N1CCC(NC(=O)c2ccc3nccn3c2)CC1
2. CC(=O)Nc1ccc(S(=O)(=O)Nc2ccc(S(=O)(=O)Nc3cc(C)ccc3C)cc2)cc1
3. COc1cc(CN2CCN(S(=O)(=O)c3ccc(Cl)cc3)CC2)cc(OC)c1OC
4. CCCc1[nH]nc(O)c1-c1ccc(OC)cc1
5. CCn1c(C)cc2cc(NC(=O)c3cnc(C)nc3C)ccc21
6. Cc1cc(C)n(CC(O)CN(Cc2ccco2)CC2CC=CCC2)n1 (stereo not shown)

95.1
98.4
91.3
96.1
104
95.6

Batch lookup, viability at 28.5 h, 10 µM per entry.
1. COc1ccc(/C=C/C(=O)Nc2cc(S(N)(=O)=O)ccc2C)cc1
2. C/C(=N\NC(=O)Cc1ccc([N+](=O)[O-])cc1[N+](=O)[O-])c1ccccc1O
3. Cc1nn(-c2ccccc2)c(Cl)c1CN1C(=O)NC2(CCCCC2)C1=O
4. CC(C)(C)CC(C)(C)NC(=O)NCCc1cccs1
5. O=C(O)c1cccc(N2C(=O)C3C4C=CC(CO)(O4)C3C2=O)c1 (stereo not shown)

[102, 88.8, 83.8, 91.8, 103]

Batch lookup, viability at 28.5 h, 10 µM per entry.
1. COc1ccc(-c2nc(-c3cc4ccccc4s3)cnc2N)cc1OC
2. Cc1nnc2nc(-c3cccc(Cl)c3Cl)[nH]n12
3. CCOC(=O)c1c(-c2ccccc2)oc2ccc(OCC(=O)NN)cc12

1. 98.6
2. 94.2
3. 91.8

----------
EXPERIMENT_NOTES: in vitro
CONDITION_INFO: human, hela cells, % viability
METRIC_NAME: viability at 28.5 h, 10 µM (%)
Numbers only, in %.

| MOLECULE | METRIC_NAME | OUTPUT_UNIT | MEASURED_NUMBER |
| --- | --- | --- | --- |
| O=C(Cn1ncc2cccn2c1=O)OCC(F)(F)F | viability at 28.5 h, 10 µM | % | 93.7 |
| CC(C)(CO)CNc1cncc(-c2ccc(O)cc2)n1 | viability at 28.5 h, 10 µM | % | 113 |
| O=C(NCC(c1cccnc1)N1CCOCC1)c1cnc(-c2ccc(Cl)cc2)c(-c2ccco2)c1 (stereo not drawn) | viability at 28.5 h, 10 µM | % | 100 |

Batch lookup, viability at 28.5 h, 10 µM per entry.
1. O=C(c1cccc(O)c1)N1CCN(Cc2cn3ccsc3n2)CC1
2. COc1cc(C2NC(=O)NC(O)(C(F)(F)F)C2C(=O)c2ccccc2)ccc1OCc1ccccc1 (stereo not drawn)
3. CCCN(C)Cc1ccc(-c2cn(CC(=O)NCc3ccc4c(c3)OC(F)(F)O4)nn2)cc1
4. Cc1cc(C)n(CC(=O)N2CCC(Nc3cccnn3)CC2)n1
5. CCNC(=O)N1CCC[C@@H](O)[C@H](NC(=O)c2ccc(OCc3c(C)noc3C)cc2)C1

76
114
101
106
84.2

Which viability at 28.5 h, 10 µM value belongs to O=C(N/N=C/c1cc2c(cc1Cl)OCO2)C(O)c1ccccc1 (stereo not drawn) ? 112
